Assay details: pH profile of enzymes on 1 mM ATP
Assay type: biochemical
Protocol conditions: 50 mM trisodium citrate/citric acid, 5 mM CaCl2, relative to the highest value
Value type: Relative activity on ATP, pH 4.5
I'd appreciate a reply containing only the number, no unit.

Give the measured Relative activity on ATP, pH 4.5 of CRC25082: Acid phosphatase (Class A), accession WP_050460978.1, SEQ ID NO:19 (protein, listed as Herbaspirillum autotrophicum) KGAAGFLNGQTAPDSLAILPPPPAEDSVAFQADKAQYETGHVLRDPERVEQARQDADYRNFGHAFSAAFGMEISATHTPVLYQLLTEVLQDSHDYAMKAAKNHYKRVRPFVVYKDPTCTPGQDEKMALSGSYPSGHASFGWAAALVLAEINPARQTEILQRGYAFGKSRVICGAHWQSDVDNGQLMGAAVVAALHSNSQFAAALNAAKNEFAGLRAQDNKK .
0.1

All values here come from patent US20240124857A1.
